# target_or_test_system: Polyketide synthase Pks13 (Mycobacterium tuberculosis (strain ATCC 25618 / H37Rv)) (UniProt I6X8D2)
# Sequence (I6X8D2 whole entry): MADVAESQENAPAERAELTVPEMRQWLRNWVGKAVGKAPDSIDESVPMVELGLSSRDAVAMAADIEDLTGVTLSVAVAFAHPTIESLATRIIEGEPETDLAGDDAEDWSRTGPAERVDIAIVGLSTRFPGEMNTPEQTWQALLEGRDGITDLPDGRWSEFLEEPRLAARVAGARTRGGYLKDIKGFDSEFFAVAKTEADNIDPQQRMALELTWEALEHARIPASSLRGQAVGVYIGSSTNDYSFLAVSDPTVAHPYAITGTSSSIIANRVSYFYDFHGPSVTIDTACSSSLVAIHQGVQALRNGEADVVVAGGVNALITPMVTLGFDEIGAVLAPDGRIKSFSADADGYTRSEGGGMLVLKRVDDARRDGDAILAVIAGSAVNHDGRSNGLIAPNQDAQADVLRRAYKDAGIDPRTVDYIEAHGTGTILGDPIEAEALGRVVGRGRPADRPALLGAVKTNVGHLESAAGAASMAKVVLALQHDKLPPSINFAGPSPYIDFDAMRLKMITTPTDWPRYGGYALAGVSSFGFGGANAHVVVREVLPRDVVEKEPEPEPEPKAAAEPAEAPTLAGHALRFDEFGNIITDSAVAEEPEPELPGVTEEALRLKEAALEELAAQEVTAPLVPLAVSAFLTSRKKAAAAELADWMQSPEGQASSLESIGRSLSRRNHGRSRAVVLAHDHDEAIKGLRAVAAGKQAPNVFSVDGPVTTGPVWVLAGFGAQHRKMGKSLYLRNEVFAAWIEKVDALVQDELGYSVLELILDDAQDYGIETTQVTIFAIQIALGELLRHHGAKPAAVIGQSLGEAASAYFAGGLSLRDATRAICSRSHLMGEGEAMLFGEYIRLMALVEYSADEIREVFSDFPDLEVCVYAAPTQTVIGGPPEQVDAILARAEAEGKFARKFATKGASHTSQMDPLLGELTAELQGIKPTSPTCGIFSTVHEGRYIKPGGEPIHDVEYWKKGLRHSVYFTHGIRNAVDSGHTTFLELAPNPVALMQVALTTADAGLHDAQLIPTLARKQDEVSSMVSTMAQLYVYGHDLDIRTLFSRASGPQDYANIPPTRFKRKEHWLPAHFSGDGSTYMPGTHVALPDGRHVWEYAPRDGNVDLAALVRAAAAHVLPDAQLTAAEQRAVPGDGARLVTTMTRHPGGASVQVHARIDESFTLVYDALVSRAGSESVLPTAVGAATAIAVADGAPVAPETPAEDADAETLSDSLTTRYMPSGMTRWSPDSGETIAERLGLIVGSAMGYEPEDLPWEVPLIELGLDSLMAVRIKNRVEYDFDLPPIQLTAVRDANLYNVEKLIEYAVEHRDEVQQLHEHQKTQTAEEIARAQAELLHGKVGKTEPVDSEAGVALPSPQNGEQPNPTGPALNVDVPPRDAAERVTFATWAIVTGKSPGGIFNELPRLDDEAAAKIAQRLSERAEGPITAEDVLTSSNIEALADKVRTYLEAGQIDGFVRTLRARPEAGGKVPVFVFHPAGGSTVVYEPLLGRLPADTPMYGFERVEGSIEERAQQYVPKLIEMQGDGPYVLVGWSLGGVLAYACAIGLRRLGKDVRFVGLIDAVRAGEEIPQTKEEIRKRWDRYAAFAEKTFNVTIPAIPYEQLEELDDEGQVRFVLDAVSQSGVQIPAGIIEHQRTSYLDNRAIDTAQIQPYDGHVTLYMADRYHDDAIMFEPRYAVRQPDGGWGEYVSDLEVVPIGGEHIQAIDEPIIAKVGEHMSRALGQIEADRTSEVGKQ
# assay_text: Mycobacterium tuberculosis Polyketide synthase 13 Thioesterase (PKS13)
# Type: functional
# Design: scale not given: in the data most compounds retested in dose-response had high values
# condition_label: 30 µM
The campaign covered roughly 67,000 compounds. About 300 (0.45%) showed an effect of 50% or more. This excerpt belongs to a sample that is enriched for strong results.
Reported Percent Effect values are given for each entry in this list.
Dear colleague, please return just the value in %, with no unit written.

Worked cases, Percent Effect given:
query_smiles: O=C(C1CCC1)N1C[C@@H]2CC[C@H](C1)N(S(=O)(=O)c1ccccc1)C2
assay_result: -44.5

query_smiles: CNC(=O)[C@@]12CCO[C@@H]1CCN(S(=O)(=O)c1ccccc1F)C2
assay_result: 16.9

query_smiles: CCS(=O)(=O)N1C[C@H](c2nc(C)no2)C[C@H]2OCC[C@H]21
assay_result: 5.36

query_smiles: O=C(c1cnccn1)N1CCN2C[C@H](Oc3cccc(F)c3)C[C@H]2C1
assay_result: -42.7

query_smiles: O=C(NC1CCCC1)[C@@H]1CN(Cc2nccs2)C[C@H]2OCC[C@H]21
assay_result: -23.6

query_smiles: Cc1ccccc1CN1CCN(c2ncnc3c2NC(=O)CN3)CC1
assay_result: -5.54

## Input # input compound: Cc1noc(C)c1CN1C[C@H](OCC2CCN(C)CC2)[C@H]2COC[C@H]21 ; wanted: its Percent Effect
## Output -13.4

## Input Another compound: CN(CCC(F)(F)F)C(=O)c1nc(S(C)(=O)=O)n2ccccc12
## Output -23

###

# target_or_test_system: Polyketide synthase Pks13 (Mycobacterium tuberculosis (strain ATCC 25618 / H37Rv)) (UniProt I6X8D2)
# assay_text: Mycobacterium tuberculosis Polyketide synthase 13 Thioesterase (PKS13)
# Format: functional
# Design: scale not given: in the data most compounds retested in dose-response had high values
# condition_label: 30 µM
The whole screen tested about 67,000 compounds, of which about 300 (0.45%) showed an effect of 50% or more. The list comes from a sample in which strong results are over-represented; it also holds close analogues and randomly drawn compounds.
recorded_endpoint: Percent Effect (%)
Dear colleague, please return just the value in %, with no unit written.

molecule: Cc1cc(C)n(-c2nc(C(=O)NCCN3CCC(C)CC3)cs2)n1
u: %
Percent Effect: 51.2

We now examine a further molecule.
## Input # input molecule: C[C@H]1C[C@@H]2CCN(C(=O)c3cccn3C)C[C@H]2O1 ; wanted: its Percent Effect
## Output -23.4

###

Reported Percent Effect values are given for each entry in this list.
# target_or_test_system: Polyketide synthase Pks13 (Mycobacterium tuberculosis (strain ATCC 25618 / H37Rv))
# assay_text: Mycobacterium tuberculosis Polyketide synthase 13 Thioesterase (PKS13)
# Assay type: functional
# Set-up: scale not given: in the data most compounds retested in dose-response had high values
# condition_label: 30 µM
Among all 67,000 compounds or so, about 300 (0.45%) showed an effect of 50% or more. The list comes from a sample in which strong results are over-represented; it also holds close analogues and randomly drawn compounds.
Entry format: amount then unit.

Worked cases, Percent Effect given:
molecule: Cn1ncc(C(=O)OCC2CCN(c3ccccc3)C2)c1C(F)F (stereo unspecified)
Percent Effect: 11.4%
//
molecule: CC(=O)N1C[C@@H](c2ccsc2)[C@@H]2CN(Cc3ccccc3C)CC[C@@H]21
Percent Effect: -7.95%
//
molecule: CCC(Cn1ccc2[nH]c(=O)c(C#N)cc2c1=O)OC (stereo unspecified)
Percent Effect: -9.98%
//
molecule: CS(=O)(=O)N[C@@H]1CN(Cc2ccoc2)C[C@@H]2CCCO[C@@H]21
Percent Effect: -30.2%
//
molecule: CNS(=O)(=O)c1csc(C(=O)N(C)Cc2sccc2C)c1
Percent Effect: -17.6%

We now examine a further molecule.
## Input # input molecule: CNS(=O)(=O)c1csc(C(=O)N(C)Cc2ccccc2C)c1 ; wanted: its Percent Effect
## Output 51.6%

###

# target_or_test_system: Polyketide synthase Pks13 (Mycobacterium tuberculosis (strain ATCC 25618 / H37Rv))
# assay_text: Mycobacterium tuberculosis Polyketide synthase 13 Thioesterase (PKS13)
# Format: functional
# Set-up: scale not given: in the data most compounds retested in dose-response had high values
# condition_label: 30 µM
About 300 (0.45%) of roughly 67,000 compounds showed an effect of 50% or more. The sample as a whole holds a higher share of strong results than the screen did.
recorded_endpoint: Percent Effect (%)
Dear colleague, please return just the value in %, with no unit written.

Worked cases, Percent Effect given:
compound: CC(C)c1cc(NC(=O)CN2CCC(N3CCNC3=O)CC2)on1
assay_result: 0.26
//
compound: O=C(Cc1ccccn1)N1CCC2(CC1)[C@H](O)C[C@@H]2O
assay_result: 7.55

We now examine a further compound.
## Input # input compound: c1cc(CN2C[C@@H]3OCCN(CC4CCCO4)[C@@H]3C2)cs1 (stereo partly drawn) ; wanted: its Percent Effect
## Output -16.8

###

Reported Percent Effect values are given for each entry in this list.
# target_or_test_system: Polyketide synthase Pks13 (Mycobacterium tuberculosis (strain ATCC 25618 / H37Rv))
# assay_text: Mycobacterium tuberculosis Polyketide synthase 13 Thioesterase (PKS13)
# Format: functional
# Design: scale not given: in the data most compounds retested in dose-response had high values
# condition_label: 30 µM
In all, about 67,000 compounds went through this assay and about 300 (0.45%) showed an effect of 50% or more. Many of the other results were omitted from the sample, so strong results are more common in it than they were.
Dear colleague, please return just the value in %, with no unit written.

Worked cases, Percent Effect given:
compound: Cn1cnc2c1C(COCC1CCOCC1)CN(Cc1ccccn1)C2 (stereo not given)
u: %
Percent Effect: -19.7
//
compound: Cc1cc(CN2CCN(CC3CC3)[C@@H]3CS(=O)(=O)C[C@@H]32)ccc1F
u: %
Percent Effect: -14.2
//
compound: CC(C)c1cc(C(=O)N2CCN(CC3CC3)[C@@H]3CS(=O)(=O)C[C@@H]32)on1
u: %
Percent Effect: -6.23
//
compound: O=C(c1ccncc1)N1C[C@@H]2CC[C@H](C1)N(S(=O)(=O)c1cccnc1)C2
u: %
Percent Effect: -25.8
//
compound: CCOCCN1Cc2ncn(C)c2C(COCC2CCOCC2)C1 (stereo not given)
u: %
Percent Effect: 55.1

## Input # input compound: Cc1cc(CN2C[C@@H]3COC[C@@H](C(=O)N4CCCCO4)[C@@H]3C2)oc1C ; wanted: its Percent Effect
## Output -7.51

## Input Another compound: O=C(C[C@H]1[C@H]2CN(c3ncccn3)C[C@@H]12)Nc1cccnc1
## Output -4.86

## Input Another compound: CCC(CC)C(=O)n1ccn(S(=O)(=O)c2ccc(C)cc2)c1=O
## Output 69.1

## Input Another compound: COc1ccc(NC(=O)Cn2c(=O)nc(N)c3cc(C)sc32)cc1
## Output -1.59

## Input Another compound: CN(C)c1ccc(CN2C[C@H]3CC[C@@H]2CN(C2CCOCC2)C3)cn1
## Output -33

Source listed as ChEMBL document CHEMBL3988442.
